Origin of the recorded values: patent US8394828B2

TARGET OR TEST SYSTEM: human VR1 (Homo sapiens)
Construct: expressed in transfected cells; host or cells: HEK293
Sequence (Q8NER1 whole entry): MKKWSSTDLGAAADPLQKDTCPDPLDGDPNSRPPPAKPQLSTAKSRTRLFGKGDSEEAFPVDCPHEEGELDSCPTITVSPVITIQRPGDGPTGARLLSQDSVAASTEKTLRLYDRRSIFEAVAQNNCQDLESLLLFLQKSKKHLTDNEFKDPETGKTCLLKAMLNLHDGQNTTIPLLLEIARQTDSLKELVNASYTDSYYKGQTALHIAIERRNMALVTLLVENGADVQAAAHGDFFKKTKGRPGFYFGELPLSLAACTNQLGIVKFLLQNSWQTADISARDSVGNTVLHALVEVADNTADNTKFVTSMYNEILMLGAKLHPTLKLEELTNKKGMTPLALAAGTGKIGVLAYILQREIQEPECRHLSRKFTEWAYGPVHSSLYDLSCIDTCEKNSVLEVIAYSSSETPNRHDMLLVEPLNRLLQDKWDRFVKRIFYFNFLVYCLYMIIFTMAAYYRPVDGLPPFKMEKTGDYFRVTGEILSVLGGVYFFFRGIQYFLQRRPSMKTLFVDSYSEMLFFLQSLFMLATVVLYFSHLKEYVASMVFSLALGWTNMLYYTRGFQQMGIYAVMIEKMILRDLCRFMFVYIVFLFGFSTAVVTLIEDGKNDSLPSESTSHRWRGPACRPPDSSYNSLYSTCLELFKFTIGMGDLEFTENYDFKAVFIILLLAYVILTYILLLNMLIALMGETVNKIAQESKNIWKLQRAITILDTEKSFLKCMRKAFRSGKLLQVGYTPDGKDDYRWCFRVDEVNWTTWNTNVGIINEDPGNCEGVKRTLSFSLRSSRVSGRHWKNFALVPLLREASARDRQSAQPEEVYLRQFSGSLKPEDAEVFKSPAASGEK
TEST NAME: Human VR1 functional assay (intracellular Ca++, FLIPR, capsaicin challenge)
Assay type: cell-based
SETTINGS: hVR1, capsaicin challenge, read-out: FLIPR functional assay IC50 hVR1
Let's look at some compounds and their measured IC50.
Note: unit nM is implicit; provide only the numeric part.

For this compound ( CCCCCCCNc1ccccc1C(=O)Nc1cnc2ccccc2c1 [2-Heptylamino-N-quinolin-3-yl-benzamide] ), measured IC50 is 1600

For this compound ( O=C(CCc1ccc2c(c1)CCCC2)Nc1cnc2ccccc2c1 ), measured IC50 is 10000

For this compound ( CCC(C)c1ccc(CCC(=O)Nc2cnc3ccccc3c2)cc1 (stereo not shown) ), measured IC50 is 1200

----------
TARGET OR TEST SYSTEM: human VR1 (Homo sapiens)
Construct: expressed in transfected cells; host or cells: HEK293
TEST NAME: Human VR1 [3H] RTX binding assay
SETTINGS: 3H-RTX binding; hVR1; read-out: 3H-RTX binding assay Ki hVR1
pKi: −log10 of the molar value.
Note to self: values exactly at 7 are y. So pKi at or above 7 is y, below is n.

// known answers, use as guide
{"columns": ["COMPOUND", "GROUP LABEL"],
 "data": [
  ["CN(CCC(C)(C)C)c1ccc(C(=O)Nc2cnc3ccccc3c2)cc1", "y"],
  ["CCCCCc1ccc(C=CC(=O)Nc2cnc3ccccc3c2)cc1", "n"],
  ["CCCCN(CCCC)c1ccc(C(=O)Nc2cnc3ccccc3c2)cc1 [4-Dibutylamino-N-quinolin-3-yl-benzamide]", "n"],
  ["CCCCC(C)(C)c1ccc(CCCC(=O)Nc2cnc3ccccc3c2)cc1", "n"],
  ["O=C(Nc1cnc2ccccc2c1)c1ccc(N2CC3CCCC(C3)C2)cc1", "y"]
]}

# check: pKi of Cc1cc(C(=O)Nc2cnc3ccccc3c2)ccc1N(C)C1CCCCC1 is greater than or equal to 7
y

----------
TARGET OR TEST SYSTEM: human VR1 (Homo sapiens)
Construct: expressed in transfected cells; host or cells: HEK293
TEST NAME: Human VR1 [3H] RTX binding assay
SETTINGS: 3H-RTX binding; hVR1; read-out: 3H-RTX binding assay Ki hVR1
Experimental: Compounds of the present invention were tested for their ability to inhibit the binding of [^3H] RTX to hVR1 receptors in a [^3H] HEK293 cells were transfected with human VR1 vanilloid receptors and washed with Hank's Balanced Salt Solution, dissociated with cell dissociation buffer (Sigma), and then centrifuged at 1000×g for 5 min. […] Approximately 120 μg protein/ml from membranes were incubated with indicated concentrations of [^3H] […] Bound radioactivity was quantified by scintillation counting. […]
VALUE KIND: pKi
// pKi is dimensionless: -log10 of concentration (M)

{"columns": ["COMPOUND", "TARGET OR TEST SYSTEM", "pKi"],
 "data": [
  ["O=C(Nc1cnc2ccccc2c1)c1ccc(N2CC[C@@H]3CCCC[C@H]3C2)cc1 (relative stereo)", "human VR1 (Homo sapiens)", 7.53],
  ["CN(Cc1ccccc1)c1ccc(C(=O)Nc2cnc3ccccc3c2)cc1", "human VR1 (Homo sapiens)", 7.12],
  ["CN(Cc1ccccc1)c1ccc(CCC(=O)Nc2cnc3ccccc3c2)cc1", "human VR1 (Homo sapiens)", 6.95],
  ["O=C(Nc1cnc2ccccc2c1)c1ccc2c(c1)CCN2C1CCCCC1", "human VR1 (Homo sapiens)", 8.31],
  ["CN1CCCc2cc(C(=O)Nc3cnc4ccccc4c3)ccc21", "human VR1 (Homo sapiens)", 6.47]
]}

For this compound ( O=C(Nc1cnc2ccccc2c1)c1ccc(N2CCCCC2)nc1 ), measured pKi is 7.69

For this compound ( CCCCCCN(CCCCCC)c1ccc(C(=O)Nc2cnc3ccccc3c2)cc1 [4-Dihexylamino-N-quinolin-3-yl-benzamide] ), measured pKi is 6.73

For this compound ( CCCCCNc1ccc(C(=O)Nc2cnc3ccccc3c2)cn1 ), measured pKi is 3.55

For this compound ( CCCCCN(C)c1ccc(C(=O)Nc2cnc3ccccc3c2)cc1C ), measured pKi is 7.42

For this compound ( CN(c1ccc(C(=O)Nc2cnc3ccccc3c2)cc1)C1CCCCCC1 ), measured pKi is 7.85
